- System: Cabbage Looper (Trichoplusia ni, TRIPNI)
- runDescription: Bioassay on Cabbage Looper (CL), 128-well diet tray assay
- Format: in vivo
- conditionDescription: 0.5 μg/cm^2, Table CD2 comparative data, read-out: Percent control (or mortality) CL
- Description: Example A: Bioassays on Beet Armyworm (Spodoptera Exigua, LAPHEG) (“BAW”), Corn Earworm (Helicoverpa zea, HELIZE) (“CEW”), and Cabbage Looper (Trichoplusia ni, TRIPNI) (“CL”) Certain molecules disclosed in this document were tested against BAW, CEW, and CL using procedures described in the following examples. […] Bioassays on CL were conducted using a 128-well diet tray assay. […] Percent mortality was recorded for the larvae in each well; activity in the eight wells was then averaged. […]
observedProperty: mortality at 0.5 µg/cm2 (%)
// note: answer is a bare numeric in %

>>> print(df.to_string())
                                   compound  measvalue
0  C[C@H](CSCC(F)(F)F)NC(=O)c1ccc(/C(F)=C/C(c2cc(Cl)c(Cl)c(Cl)c2)C(F)(F)F)cc1Br (stereo partly shown)         56

[ask] Recorded mortality at 0.5 µg/cm2 of Cc1cc(/C(F)=C/C(c2cc(Cl)c(Cl)c(Cl)c2)C(F)(F)F)ccc1C(=O)N[C@H](C)CSCC(F)(F)F (stereo partly shown) , please.
[reply] 60

[ask] Recorded mortality at 0.5 µg/cm2 of C[C@H](CSCC(F)(F)F)NC(=O)c1ccc(/C(F)=C/C(c2cc(Cl)c(Cl)c(Cl)c2)C(F)(F)F)cc1Cl (stereo partly shown) , please.
[reply] 100

[ask] Recorded mortality at 0.5 µg/cm2 of C[C@H](CSCC(F)(F)F)NC(=O)c1ccc(/C(F)=C/C(c2cc(Cl)c(Cl)c(Cl)c2)C(C)(F)F)cc1 (stereo partly shown) , please.
[reply] 0

###

- Tested on: Cabbage Looper (Trichoplusia ni, TRIPNI)
- runDescription: Bioassay on Cabbage Looper (CL), 128-well diet tray assay
- Format: in vivo
- conditionDescription: 168 h, 50 μg/cm^2 on artificial diet, second instar larvae, five to seven days, 25° C., read-out: CL % Control (or Mortality) rating
observedProperty: mortality at 50 µg/cm2

Answered cases to consult:
molecule	mortality at 50 µg/cm2
C[C@H](CS(=O)(=O)CC(F)(F)F)NC(=O)c1ccc(/C(F)=C/C(c2ccc(Br)c(Br)c2)C(F)(F)F)cc1C(F)(F)F (stereo partly shown) [F54]	50 to 100%
C[C@H](CS(=O)(=O)CC(C)(F)F)NC(=O)c1ccc(/C(F)=C/C(c2cc(Cl)c(Cl)c(Cl)c2)C(F)(F)F)cc1C(F)(F)F (stereo partly shown) [F97]	50 to 100%
C[C@H](CSCC(F)F)NC(=O)c1ccc(/C(F)=C/C(c2cc(Cl)c(Cl)c(Cl)c2)C(F)(F)F)cc1C(F)(F)F (stereo partly shown) [F82]	50 to 100%
C[C@H](C[S+]([O-])CC(F)(F)F)NC(=O)c1ccc(/C(F)=C/C(c2cc(Br)c(Cl)c(Br)c2)C(F)(F)F)cc1C(F)(F)F (stereo partly shown) [F23]	50 to 100%

[ask] Recorded mortality at 50 µg/cm2 of C[C@H](C[S+]([O-])CC(F)(F)F)NC(=O)c1ccc(/C(F)=C/C(c2cc(Cl)c(Cl)c(Cl)c2)C(F)(F)F)cc1C(F)(F)F (stereo partly shown) [F3] , please.
[reply] 50 to 100%

[ask] Recorded mortality at 50 µg/cm2 of C[C@H](CS(=O)(=O)CC(F)(F)F)NC(=O)c1ccc(/C(F)=C/C(c2ccc(F)c(C(F)(F)F)c2)C(F)(F)F)cc1C(F)(F)F (stereo partly shown) [F77] , please.
[reply] 50 to 100%
